Target: T1, huNav1.7α + β1-β2-β3 (human, UniProt Q15858 1-1988; A5A6L6 19-218; O60939 30-215; Q2KI11 23-215)
T1 construct: Cell line (CHO FlpIn, HEK FlpIn, transient HEK293T) is named under assay; also called huNav1.7-beta1-beta2-beta3; human Nav1.7α with Navβ1, Navβ2 and Navβ3
Assay: binding FACS, CHO FlpIn cells
pEC50: −log10 of the molar value.
measured-metric: pEC50

F010302344 (VHH) VHH: EVQLVESGGGVVQPGGSLRLSCAASHRQFIRDVFTGWYRQAPGKQRELVARIYNEGNTQYADSAKGRFTISRDNAKKTVYLQMNSLRPEDTALYYCLFSGTISTGREYRSGDYWGQGTLVTVSS
8.37
F010301882 (VHH, I30V vs F0103464B09 (Kabat)) VHH: EVQLVESGGGLVQPGGSLRLSCATTSRAFVRDVFTGWYRRVPGKERELVARIYNGGNTNYADFAKGRFSISRDNAKKMVTLRMSNLKPEDTGVYYCLFSGTINTGREYRSGDYWGQGTLVTVSS
8.35

(a) F010301890 (VHH, T35V vs F0103464B09 (Kabat)) VHH: EVQLVESGGGLVQPGGSLRLSCATTSRAFIRDVFVGWYRRVPGKERELVARIYNGGNTNYADFAKGRFSISRDNAKKMVTLRMSNLKPEDTGVYYCLFSGTINTGREYRSGDYWGQGTLVTVSS
(b) F010301568 (VHH, G35T vs F0103362B08 (Kabat)) VHH: EVQLVESGGGLVQAGGSLRLSCAASVRPFSTSAMTWFRQAPEKEREAVAGILWNGIVTYYADSVKGRFTISRDNAKNEVYLQMNKLKPEDTAVYYCALDRDYGGRSFSAYEYEYWGQGTLVTVSS
IN: Would you let me know which has the greater pEC50 value, a or b ? Please indicate the selected item by its label.
OUT: a
(a: 8.30, b: 6.51)

Where these numbers come from: patent US20240002497A1
